pIC50: −log10 of the molar value.
# literature pull: Amine oxidase [flavin-containing] B (Homo sapiens, UniProt P27338) pIC50
# Sequence (P27338 whole entry): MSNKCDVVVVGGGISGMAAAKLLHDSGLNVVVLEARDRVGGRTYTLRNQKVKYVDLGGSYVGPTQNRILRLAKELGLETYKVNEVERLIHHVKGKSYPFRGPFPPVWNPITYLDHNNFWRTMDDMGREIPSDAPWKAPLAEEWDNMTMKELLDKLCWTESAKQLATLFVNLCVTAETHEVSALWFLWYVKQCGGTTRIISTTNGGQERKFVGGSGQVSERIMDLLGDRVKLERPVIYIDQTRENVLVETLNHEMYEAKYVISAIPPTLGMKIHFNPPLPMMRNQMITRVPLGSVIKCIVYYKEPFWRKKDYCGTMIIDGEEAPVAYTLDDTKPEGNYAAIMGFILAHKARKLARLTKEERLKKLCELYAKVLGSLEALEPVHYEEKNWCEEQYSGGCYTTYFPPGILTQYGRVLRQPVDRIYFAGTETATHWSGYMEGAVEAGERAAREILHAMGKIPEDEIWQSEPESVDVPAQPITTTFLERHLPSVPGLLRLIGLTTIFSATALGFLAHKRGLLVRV
observation.type: pIC50

> print(dat)
                                    compound                             target.entity  censoring.operator  reported
 1  CCn1c(=O)c2c(nc3n2CCCN3CCc2ccccc2OC)n(CC)c1=O  Amine oxidase [flavin-containing] B (Homo sapiens, UniProt P27338)                   =      5.49
 2  Cn1c(=O)c2c(cc(C#CCc3ccccc3)n2C)n(C)c1=O  Amine oxidase [flavin-containing] B (Homo sapiens, UniProt P27338)                   <      6.00
 3    COc1cccc(C(=O)/C=C/c2ccccc2C(F)(F)F)c1  Amine oxidase [flavin-containing] B (Homo sapiens, UniProt P27338)                   =      5.67
 4  Cn1c(=O)c2c(cc(/C=C/c3ccc(Cl)c(Cl)c3)n2C)n(C)c1=O  Amine oxidase [flavin-containing] B (Homo sapiens, UniProt P27338)                   =      6.88
 5  COc1ccc(C2CC(c3ccccc3)=NN2C(C)=O)cc1OC (stereo not drawn)  Amine oxidase [flavin-containing] B (Homo sapiens, UniProt P27338)                   =      4.60
 6   COc1ccc(OC(=O)/C=C/c2ccccc2C(F)(F)F)cc1  Amine oxidase [flavin-containing] B (Homo sapiens, UniProt P27338)                   =      5.59
 7  CC(C)(C)OC(=O)N1CCN(C(=S)SCc2cn(Cc3cc(=O)oc4cc(O)ccc34)nn2)CC1  Amine oxidase [flavin-containing] B (Homo sapiens, UniProt P27338)                   <      2.90
 8     CCC(C)(C)c1ccc(OCCCN2CCCC(C)(C)C2)cc1  Amine oxidase [flavin-containing] B (Homo sapiens, UniProt P27338)                   =      6.38
 9  Cn1c(=O)c2c(nc3n2CCCN3CCc2ccc(Cl)c(Cl)c2)n(C)c1=O  Amine oxidase [flavin-containing] B (Homo sapiens, UniProt P27338)                   =      7.06
10     Oc1cccc(NCc2ccc(OCc3ccc(F)cc3)cc2O)c1  Amine oxidase [flavin-containing] B (Homo sapiens, UniProt P27338)                   =      7.17
11  C#CCn1c(=O)c2c(nc3n2CCCN3Cc2ccccc2OC)n(C)c1=O  Amine oxidase [flavin-containing] B (Homo sapiens, UniProt P27338)                   =      5.74
12  O=C(O)c1cc(N2N=C(C(F)(F)F)/C(=C/c3ccc(-c4ccccc4)o3)C2=O)ccc1Cl  Amine oxidase [flavin-containing] B (Homo sapiens, UniProt P27338)                   =      4.51
13  C#CCSc1nc(NNC(N)=S)c(C#N)c(-c2cc(OC)c(OC)c(OC)c2)n1  Amine oxidase [flavin-containing] B (Homo sapiens, UniProt P27338)                   <      2.90
14                Brc1cccc(COc2cccc(Br)c2)c1  Amine oxidase [flavin-containing] B (Homo sapiens, UniProt P27338)                   =      6.12
15  N[C@@H]1C[C@H]1c1ccc(OCC[C@H](NC(=O)c2ccccc2)C(=O)NCc2ccccc2)cc1  Amine oxidase [flavin-containing] B (Homo sapiens, UniProt P27338)                   <      3.00
16  CCn1c(=O)c2c(nc3n2CCCN3c2ccc(F)cc2)n(CC)c1=O  Amine oxidase [flavin-containing] B (Homo sapiens, UniProt P27338)                   =      5.00
17       Oc1cc(OCc2ccc(Cl)cc2)ccc1CNc1ccccc1  Amine oxidase [flavin-containing] B (Homo sapiens, UniProt P27338)                   =      7.24
18              NCc1cn(-c2ccc(C(=O)O)cc2)nn1  Amine oxidase [flavin-containing] B (Homo sapiens, UniProt P27338)                   =      4.25
19         C#CCN(C)C1=C(Cl)C(=O)c2ccccc2C1=O  Amine oxidase [flavin-containing] B (Homo sapiens, UniProt P27338)                   =      6.85
20  COc1ccc(/C=C/c2cc3c(c(=O)n(C)c(=O)n3C)n2C)cc1  Amine oxidase [flavin-containing] B (Homo sapiens, UniProt P27338)                   =      6.12
21  Cn1c(=O)c2c(nc3n2CCCN3Cc2cc(Cl)cc(Cl)c2)n(C)c1=O  Amine oxidase [flavin-containing] B (Homo sapiens, UniProt P27338)                   =      6.71
22                 COc1cccc(OCc2cccc(F)c2)c1  Amine oxidase [flavin-containing] B (Homo sapiens, UniProt P27338)                   =      4.91
23     O=C(Nc1cccc(Cl)c1)c1coc2cccc(O)c2c1=O  Amine oxidase [flavin-containing] B (Homo sapiens, UniProt P27338)                   =      7.60
